// values below are reported melting point

Look over these answered cases.
CN1CCCN(c2ccc3cc(-c4cn5cccc(F)c5n4)c(=O)oc3n2)CC1    269 to 272 °C
CCN1CCN(c2ccc3cc(-c4cn5cc(C)nc(C)c5n4)c(=O)oc3n2)CC1    238 to 241 °C
C[C@@H]1CN(c2ccc3cc(-c4nc5c(Cl)cccc5s4)c(=O)oc3n2)C[C@H](C)N1    295 to 297 °C
O=c1oc2nc(N3CCN(CCO)CC3)ccc2cc1-c1nc2ccccc2s1    220 to 224 °C
Cc1ccc2nc(-c3cc4ccc(N5CCN(C)[C@H](C)C5)nc4oc3=O)cn2c1    247 to 251 °C
CN1CCCN(c2ccc3cc(-c4nc5ccccc5s4)c(=O)oc3n2)CC1    274 to 276 °C
O=c1oc2nc(N3CCNCC3)ccc2cc1-c1cn2cccc(Cl)c2n1    233 to 237 °C
Cl.O=c1oc2nc(N3CCCNCC3)ccc2cc1-c1cn2ccsc2n1    267 to 269 °C

Indicate the recorded melting point value for this compound: Cl.O=c1oc2nc(N3CCCNCC3)ccc2cc1-c1nc2c(Cl)cccc2s1
271 to 273 °C

Report melting point for CCCN1CCN(c2ccc3cc(-c4nc5ccccc5s4)c(=O)oc3n2)CC1
247 to 250 °C

Find the measured melting point of C[C@@H]1CN(c2ccc3cc(-c4cn5cccc(Cl)c5n4)c(=O)oc3n2)C[C@H](C)N1C and report it.
241 to 245 °C

###

Some compounds, each annotated with its measured melting point.

Illustrative cases are given below, each with its answer.
Cl.O=c1oc2nc(N3CCCNCC3)ccc2cc1-c1nc2ccccc2s1 [Cpd 51]    284 to 286 °C
O=c1oc2nc(N3CCN(CCO)CC3)ccc2cc1-c1nc2c(Cl)cccc2s1 [Cpd 10]    258 to 262 °C
Cc1csc(-c2cc3ccc(N4CCNCC4)nc3oc2=O)n1.Cl [Cpd 15]    238 to 242 °C
C[C@@H]1CN(c2ccc3cc(-c4cn5cccc(F)c5n4)c(=O)oc3n2)C[C@H](C)N1 [Cpd 76]    247 to 249 °C
Cc1cn2cc(-c3cc4ccc(N5CCCN(C)CC5)nc4oc3=O)nc2cn1 [Cpd 105]    290 to 293 °C
CCN1CCN(c2ccc3cc(-c4cn5cc(C)ccc5n4)c(=O)oc3n2)CC1 [Cpd 130]    235 to 237 °C

Consider now this further compound.
For the compound Cc1cc(F)c2nc(-c3cc4ccc(N5C[C@@H](C)N[C@@H](C)C5)nc4oc3=O)cn2c1 [Cpd 106] , give its measured melting point value.
280 to 283 °C
